system: (2S,3S)-2,3-butanediol dehydrogenase; experiment: Dehydrogenase (oxidative) activity of the purified enzyme on various substrates, NAD+ as coenzyme; type: biochemical, Zoogloea ramigera; details: oxidation; substrate 50 mM, standard reaction condition; activity on (2S,3S)-2,3-butanediol taken as 100
Hi, to clarify the labels: fulfilled covers Relative activity (%) from 0.9% upward, not fulfilled covers anything below 0.9%.

Example results:
OC[C@@H](O)CCl [(R)-3-chloro-1,2-propanediol]; fulfilled
OC[C@H](O)CCl [(S)-3-chloro-1,2-propanediol]; not fulfilled
CC(=O)C(C)O (centres unmarked); not fulfilled
C[C@H](O)[C@H](C)O; fulfilled
C[C@@H](O)[C@@H](C)O; fulfilled
C[C@H](O)CO [(S)-1,2-propanediol]; fulfilled

Turning to the following molecule.
Ask: Entry CC(O)C(C)O (centres unmarked) : is its Relative activity (%) no less than 0.9%?
Reply: not fulfilled

###

tested on: (2S,3S)-2,3-butanediol dehydrogenase; experiment: Activation of (2S,3S)-2,3-butanediol dehydrogenase activity by divalent ions; type: biochemical, Zoogloea ramigera; conditions: divalent ion 1 mM; activity in the absence of the ions taken as 100
Measured Endpoint: Relative activity (%)
Field note: include the unit after the figure.

Solved entries (count: 6):
[Mn+2] [Mn^2+]; 104%
[Zn+2] [Zn^2+]; 109%
[Co+2] [Co^2+]; 106%
[Ni+2] [Ni^2+]; 104%
[Cu+2] [Cu^2+]; 107%
[Ca+2] [Ca^2+]; 113%

Ask: Find the recorded Relative activity (%) belonging to [Mg+2] [Mg^2+] and report it.
Reply: 110%

Ask: Dear colleague, I am looking for the recorded Relative activity (%) of the following compound: [Ba+2] [Ba^2+]
Reply: 112%
